Reported IC50 values follow for various compounds
- target: baculovirus-expressed ALK (Homo sapiens)
- Construct: host or cells: baculovirus expression system
- measurementProtocol: ALK Kinase Assay (ELISA-type, time-resolved fluorescence)
- Format: biochemical
- experimentalParameters: 1 μM ATP (Km level); read-out: ALK Activity (ALK Kinase Inhibition, IC50)

- compound: "CCN1CCc2ccc(Nc3ncc(C(F)(F)F)c(Nc4ccc(N5CCOCC5)cc4OC)n3)cc2CC1"
  IC50: "< 100 nM"

Now take the following compound into account.
Look up IC50 for this compound: "Cc1ccnc(-c2ccccc2Nc2nc(Nc3ccc4c(c3)C(C)(C)CCC(=O)N4)ncc2Cl)c1"
100 to 1000 nM

----------
- target: c-Met (cytoplasmic domain) (Homo sapiens, UniProt P08581)
- Construct: 10 ng/mL c-Met (cytoplasmic domain, Invitrogen Corporation #PV3143); purchased Invitrogen Corporation PV3143
- Sequence (P08581 956-1390 limits assumed): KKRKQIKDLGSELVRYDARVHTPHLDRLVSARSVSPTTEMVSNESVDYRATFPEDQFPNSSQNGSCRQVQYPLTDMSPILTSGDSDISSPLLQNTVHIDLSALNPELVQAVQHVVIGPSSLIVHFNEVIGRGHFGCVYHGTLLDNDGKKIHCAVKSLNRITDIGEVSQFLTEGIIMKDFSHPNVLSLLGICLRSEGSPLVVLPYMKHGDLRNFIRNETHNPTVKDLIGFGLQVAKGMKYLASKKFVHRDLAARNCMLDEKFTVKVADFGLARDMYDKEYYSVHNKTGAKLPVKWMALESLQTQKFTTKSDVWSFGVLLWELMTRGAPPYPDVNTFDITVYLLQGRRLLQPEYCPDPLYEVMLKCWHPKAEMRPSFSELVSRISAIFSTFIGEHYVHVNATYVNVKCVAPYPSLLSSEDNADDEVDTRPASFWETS
- measurementProtocol: c-Met Kinase Assay (same methods as for ALK, with modifications)
- Format: biochemical
- experimentalParameters: c-Met kinase inhibition, 1 μM ATP (Km level); read-out: cMet Activity
pIC50: −log10 of the molar value.
Reported pIC50 values follow for various molecules

Field: example entries. Status: answers known.
- molecule: "CNC(=O)c1ccccc1Nc1nc(Nc2ccc3c(c2)C2CCC3CN(C(=O)C(F)(F)F)C2)ncc1Cl (stereo not shown)"
  measurementName: "pIC50"
  valueReported: "> 7.00"
- molecule: "CNC(=O)c1ccccc1Nc1nc(Nc2ccc3c(c2)N(C)CCN(CCO)C3)ncc1Cl"
  measurementName: "pIC50"
  valueReported: "> 7.00"
- molecule: "CNC(=O)c1ccccc1Nc1nc(Nc2cc3c(cc2Cl)CC2CCC3N2CCOC)ncc1Cl (stereo not shown)"
  measurementName: "pIC50"
  valueReported: "5.00 to 6.00"
- molecule: "CC1CNC(=O)c2c(Nc3ncc(Cl)c(N[C@@H]4CCCC[C@H]4NS(C)(=O)=O)n3)cccc2N1C(=O)C(F)(F)F (stereo partly shown)"
  measurementName: "pIC50"
  valueReported: "5.00 to 6.00"
- molecule: "CNC(=O)c1cccc(Cl)c1Nc1nc(Nc2ccc3c(c2)CCCC(=O)N3C)ncc1Cl"
  measurementName: "pIC50"
  valueReported: "> 7.00"
- molecule: "CNC(=O)c1ccccc1Nc1nc(Nc2ccc3c(c2)C2CCC3CNC2)ncc1Cl (stereo not shown)"
  measurementName: "pIC50"
  valueReported: "> 7.00"
- molecule: "CC1(C)CCC(=O)Nc2ccc(Nc3ncc(Cl)c(Nc4ccccc4-c4ncc[nH]4)n3)cc21"
  measurementName: "pIC50"
  valueReported: "5.00 to 6.00"
- molecule: "CCN1CCc2ccc(OC)c(Nc3ncc(Cl)c(Nc4ccccc4S(=O)(=O)NC)n3)c2CC1"
  measurementName: "pIC50"
  valueReported: "< 5.00"
- molecule: "CCOC(=O)N1C2CCC1c1cc(Nc3ncc(Cl)c(Nc4ccccc4C(=O)NC)n3)ccc1C2 (stereo not shown)"
  measurementName: "pIC50"
  valueReported: "> 7.00"
- molecule: "CNC(=O)c1ccccc1Nc1nc(Nc2ccc3c(c2OC)CCCC(=O)N3CCOC)ncc1Cl"
  measurementName: "pIC50"
  valueReported: "5.00 to 6.00"

Quick check: pIC50 on c-Met (cytoplasmic domain) (Homo sapiens, UniProt P08581), item "CN1C(=O)CCCc2cc(Nc3ncc(Cl)c(Nc4ccc(N5CCOCC5)cc4C(N)=O)n3)ccc21" ?
6.00 to 7.00

Consider next the molecule "COc1cc(N2CCOCC2)ccc1Nc1nc(Nc2ccc3c(c2)CCN(S(C)(=O)=O)CC3)ncc1Cl" in the same way.
5.00 to 6.00

Consider next the molecule C#CCN1CC2CCC(C1)c1cc(Nc3ncc(Cl)c(Nc4ccccc4C(=O)NC)n3)ccc12 (stereo not shown) in the same way.
> 7.00

Consider next the molecule "COCCN1CCc2ccc(Nc3ncc(Cl)c(N[C@@H]4CCCC[C@H]4NC(=O)C(F)(F)F)n3)cc2CC1" in the same way.
6.00 to 7.00

Consider next the molecule NC(=O)C1C2C=CC(C2)C1Nc1nc(Nc2ccc3c(c2)CNC(=O)NC3)ncc1Cl (stereo not shown) in the same way.
6.00 to 7.00

Consider next the molecule "CNC(=O)c1ccccc1Nc1nc(Nc2ccc3c(c2)CCC(F)(F)CC3)ncc1Cl" in the same way.
6.00 to 7.00

----------
Reported IC50 values follow for various compounds
- target: baculovirus-expressed ALK (Homo sapiens, UniProt Q9UM73)
- Construct: host or cells: baculovirus expression system
- Sequence (Q9UM73 19-1620): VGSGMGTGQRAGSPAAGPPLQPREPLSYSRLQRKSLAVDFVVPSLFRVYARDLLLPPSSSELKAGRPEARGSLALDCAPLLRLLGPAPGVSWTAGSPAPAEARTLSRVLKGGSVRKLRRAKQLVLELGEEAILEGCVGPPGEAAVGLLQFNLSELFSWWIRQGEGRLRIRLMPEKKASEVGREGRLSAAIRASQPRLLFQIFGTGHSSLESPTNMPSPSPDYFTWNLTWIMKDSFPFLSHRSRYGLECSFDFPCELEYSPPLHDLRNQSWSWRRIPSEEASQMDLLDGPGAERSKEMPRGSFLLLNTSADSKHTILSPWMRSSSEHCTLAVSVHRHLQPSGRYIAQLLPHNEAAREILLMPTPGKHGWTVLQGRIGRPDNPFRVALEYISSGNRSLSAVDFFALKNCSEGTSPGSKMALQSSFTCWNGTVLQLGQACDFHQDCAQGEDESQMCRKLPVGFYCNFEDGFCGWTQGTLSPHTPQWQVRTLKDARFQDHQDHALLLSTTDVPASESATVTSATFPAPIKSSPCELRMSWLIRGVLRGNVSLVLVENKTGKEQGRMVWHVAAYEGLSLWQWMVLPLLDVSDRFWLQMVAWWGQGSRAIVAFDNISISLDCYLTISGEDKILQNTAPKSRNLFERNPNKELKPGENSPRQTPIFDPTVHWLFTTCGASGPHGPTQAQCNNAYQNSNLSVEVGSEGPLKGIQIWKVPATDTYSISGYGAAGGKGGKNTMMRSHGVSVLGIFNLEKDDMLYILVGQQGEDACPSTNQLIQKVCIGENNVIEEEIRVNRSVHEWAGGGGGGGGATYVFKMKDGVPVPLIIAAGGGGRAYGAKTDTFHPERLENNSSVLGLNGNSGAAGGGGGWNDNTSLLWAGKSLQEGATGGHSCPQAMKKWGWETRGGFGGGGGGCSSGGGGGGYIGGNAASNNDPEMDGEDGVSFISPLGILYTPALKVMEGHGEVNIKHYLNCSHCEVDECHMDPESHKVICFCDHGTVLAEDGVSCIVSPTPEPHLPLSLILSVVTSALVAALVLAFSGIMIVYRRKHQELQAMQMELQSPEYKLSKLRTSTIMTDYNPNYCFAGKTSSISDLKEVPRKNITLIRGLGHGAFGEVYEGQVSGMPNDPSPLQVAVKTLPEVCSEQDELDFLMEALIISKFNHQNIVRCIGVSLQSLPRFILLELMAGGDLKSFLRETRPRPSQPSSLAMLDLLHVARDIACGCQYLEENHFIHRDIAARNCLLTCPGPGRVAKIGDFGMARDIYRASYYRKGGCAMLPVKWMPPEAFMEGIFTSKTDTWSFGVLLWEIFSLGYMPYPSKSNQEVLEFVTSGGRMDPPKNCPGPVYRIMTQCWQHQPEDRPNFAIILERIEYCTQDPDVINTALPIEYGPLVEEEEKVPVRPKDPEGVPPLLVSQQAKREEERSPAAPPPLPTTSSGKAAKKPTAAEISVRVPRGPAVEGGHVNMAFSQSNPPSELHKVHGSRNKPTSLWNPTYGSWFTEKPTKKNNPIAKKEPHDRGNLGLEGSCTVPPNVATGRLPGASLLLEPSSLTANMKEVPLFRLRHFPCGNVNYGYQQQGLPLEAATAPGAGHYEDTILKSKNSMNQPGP
- measurementProtocol: ALK Kinase Assay (ELISA-type, time-resolved fluorescence)
- Type: biochemical
- experimentalParameters: 1 μM ATP (Km level), 30 ng/ml ALK, 37° C., 15 minutes; read-out: ALK Activity (ALK kinase inhibition, IC50 class)

- mol: "CNC(=O)c1ccccc1Nc1nc(Nc2ccc3c(c2)CNC(=O)CCN3)ncc1Cl"
  target: "baculovirus-expressed ALK (Homo sapiens, UniProt Q9UM73)"
  IC50: "< 100 nM"

Quick check: IC50 on baculovirus-expressed ALK (Homo sapiens, UniProt Q9UM73), item "CNC(=O)c1ccc(Nc2nc(Nc3cc4c(cc3OC)CCN(CC(=O)N(C)C)CC4)ncc2Cl)c(OC)c1" ?
< 100 nM

Consider next the compound "COc1cc2c(cc1Nc1ncc(Cl)c(N[C@H]3[C@@H](C(N)=O)[C@@H]4C=C[C@H]3C4)n1)C(C)(C)CCC(=O)N2" in the same way.
< 100 nM

----------
- target: c-Met (cytoplasmic domain) (Homo sapiens, UniProt P08581)
- Construct: 10 ng/mL c-Met (cytoplasmic domain, Invitrogen Corporation #PV3143); purchased Invitrogen Corporation PV3143
- measurementProtocol: c-Met Kinase Assay (same methods as for ALK, with modifications)
- Assay type: biochemical
- experimentalParameters: c-Met kinase inhibition, 1 μM ATP; read-out: cMet Activity
measurementName: IC50

Field: example entries. Status: answers known.
- molecule: "CC1(C)CCCN(C(=O)CN2CCCC2)c2cc(Nc3ncc(Cl)c(N[C@H]4[C@@H](C(N)=O)[C@@H]5C=C[C@H]4C5)n3)ccc21 [Example 1607]"
  IC50: "100 to 1000 nM"
- molecule: "COc1cc2c(cc1Nc1ncc(Cl)c(Nc3ccccc3S(=O)(=O)N(C)C)n1)CCN(CC(C)(C)O)CC2 [Example 1563]"
  IC50: "1000 to 10000 nM"

Look up IC50 for this molecule: COc1cc2c(cc1Nc1ncc(Cl)c(N[C@H]3[C@@H](C(N)=O)[C@@H]4C=C[C@H]3C4)n1)CCN(CC(C)(C)O)CC2 [Example 1560]
> 10000 nM

----------
- target: c-Met (cytoplasmic domain) (Homo sapiens)
- Construct: 10 ng/mL c-Met (cytoplasmic domain, Invitrogen Corporation #PV3143); purchased Invitrogen Corporation PV3143
- measurementProtocol: c-Met Kinase Assay (same methods as for ALK, with modifications)
- Type: biochemical
- experimentalParameters: c-Met kinase inhibition, 1 μM ATP; read-out: cMet Activity
pIC50: −log10 of the molar value.
measurementName: pIC50

Field: example entries. Status: answers known.
- compound: "COc1cc2c(cc1Nc1ncc(Cl)c(Nc3ccc(N(C)C)cc3OC)n1)CCN(CCN1CCOCC1)CC2 [Example 1537]"
  pIC50: "< 5.00"
- compound: "COc1cc2c(cc1Nc1ncc(C(F)(F)F)c(Nc3ccc(N4CCOCC4)cc3OC)n1)N(C)C(=O)OCC2 [Example 1518]"
  pIC50: "5.00 to 6.00"
- compound: "COc1cc(N2CCOCC2)ccc1Nc1nc(Nc2ccc3c(c2)N(CCN2CCCC2)CCCC3(C)C)ncc1Cl [Example 1610]"
  pIC50: "5.00 to 6.00"

Now take the following compound into account.
Quick check: pIC50 on c-Met (cytoplasmic domain) (Homo sapiens), item CCN1CCCOc2cc(Nc3ncc(Cl)c(Nc4ccc(N5CCOCC5)cc4OC)n3)ccc21 [Example 1694] ?
5.00 to 6.00

----------
- target: c-Met (cytoplasmic domain) (Homo sapiens, UniProt P08581)
- Construct: 10 ng/mL c-Met (cytoplasmic domain, Invitrogen Corporation #PV3143); purchased Invitrogen Corporation PV3143
- measurementProtocol: c-Met Kinase Assay (same methods as for ALK, with modifications)
- Format: biochemical
- experimentalParameters: 1 μM ATP (Km level), 10 ng/mL c-Met; read-out: cMet Activity (c-Met kinase inhibition, IC50 class)
- Procedure: Briefly, each 96-well plate was coated with 100 μL/well of 10 μg/mL substrate (phospholipase C-γ) in Tris-buffered saline (TBS). […] The reaction was initiated by adding enzyme (30 ng/ml ALK) and was allowed to proceed at 37° C. for 15 minutes. Detection of the phosphorylated product was performed by adding 100 μl/well of Eu-N1 labeled PT66 antibody (Perkin Elmer # AD0041). Data analysis was performed using ActivityBase (IDBS, Guilford, UK). […]
pIC50: −log10 of the molar value.
measurementName: pIC50

Field: example entries. Status: answers known.
- compound: "COc1cc2c(cc1Nc1ncc(Cl)c(Nc3ccccc3S(C)(=O)=O)n1)CCN(CC(=O)N(C)C)CC2"
  valueReported: "5.00 to 6.00"
- compound: "O=C1CCCc2ccc(Nc3ncc(Cl)c(Nc4c(F)cccc4OCC4CCOC4)n3)cc2N1 (stereo not drawn)"
  valueReported: "6.00 to 7.00"
- compound: "COc1cc2c(cc1Nc1ncc(Cl)c(Nc3ccc(N4CCOCC4)cc3OC)n1)CCN(CC(=O)N1CCCC1)CC2"
  valueReported: "< 5.00"
- compound: "CNC(=O)c1cc(-c2cnn(C)c2)cc(F)c1Nc1nc(Nc2ccc3c(c2)N(C(C)=O)CCCO3)ncc1Cl"
  valueReported: "> 7.00"
- compound: "CCN1CCCOc2cc(Nc3ncc(Cl)c(Nc4ccsc4C(=O)NC)n3)ccc21"
  valueReported: "6.00 to 7.00"

Now take the following compound into account.
Quick check: pIC50 on c-Met (cytoplasmic domain) (Homo sapiens, UniProt P08581), item "COc1cc2c(cc1Nc1ncc(Cl)c(Nc3ccc(N(C)C)cc3OC)n1)CCN(Cc1ncco1)CC2" ?
< 5.00

Attribution: patent US8148391B2
